Origin of values: ChEMBL document CHEMBL1909543

Entries annotated with measured IC50
test system: SAOS-2; experiment: Antitumor activity against p53 deficient human Saos2 cells after 72 hrs by MTT assay; assay type: functional, cell-based; conditions: SAOS-2, 72 h
Field format: number, assumed µM, no unit text.

Check out these entries, answers already filled in.
> print(dat)
                                   compound  value.observed
1  COC(=O)C(c1ccc(Cl)cc1)N1C(=O)c2ccc(NCc3ccc(Br)cc3)cc2NC(=S)C1c1ccc(Cl)cc1 (centres undefined)            13.8
2  COC(=O)C(c1ccc(Cl)cc1)N1C(=O)c2ccc(NCC(C)C)cc2NC(=S)C1c1ccc(Cl)cc1 (centres undefined)            15.7
3  COC(=O)C(c1ccc(Cl)cc1)N1C(=O)c2ccc(NCC3CCCCC3)cc2NC(=S)C1c1ccc(Cl)cc1 (centres undefined)            72.2

Proceeding to the next compound to report its IC50.
Write down the reported IC50 (system: SAOS-2) of COC(=O)C(c1ccc(Cl)cc1)N1C(=O)c2ccc(NCc3ccsc3)cc2NC(=S)C1c1ccc(Cl)cc1 (centres undefined)
3.37
